Exercise: state measured t½ for each of the binders provided.
Target: T1, D1 domain of human IL-2Rγ extracellular domain expressed with a C-terminal myc-myc-hexahistidine tag (human)
T1 construct: also called human IL2Rγ domain 1
T1 chain: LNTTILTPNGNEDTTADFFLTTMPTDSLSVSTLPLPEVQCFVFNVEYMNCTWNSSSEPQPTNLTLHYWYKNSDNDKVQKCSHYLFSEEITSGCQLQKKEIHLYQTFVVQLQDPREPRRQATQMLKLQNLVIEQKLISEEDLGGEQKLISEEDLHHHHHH
Test: SPR, mAb captured on anti-hFc, 25 C
Procedure: Equilibrium dissociation constants (KD values) for IL-2Rγ binding to purified anti-IL2Rγ monoclonal antibodies were determined using a Biacore 4000 instrument equipped with a real-time surface plasmon resonance biosensor. […] The dissociation of monoclonal antibody bound IL2Rγ reagents were monitored for 8-10 minutes in HBS-ET running buffer. […] Binding dissociation equilibrium constants (KD) and dissociative half-lives (t_{1/2}) were calculated from the kinetic rate constants as: […]
Output spec: scalar in min, unitless text.

INPUT: Given the entry H4H12884P (antibody, human IgG4 S228P, kappa, V domains shown, human IgG4) VH: QVQLQESGPGLVKPSQTLSLTCTVSGGSISSGGYYWSWIRQHPGKGLEWIGFIYYSGKTYYNPSLKSRLTISVDTSKSQFSLKLRSVTAADTAVYYCARLGYTNSAGWFDPWGQGTLVTVSS VL: DIQMTQSPSSLSASVGDRVTITCRASQSISSYLNWYQQKPGKAPNLLIYAASSLQSGVPSRFSGSGSGTDFTLTISSLQPEDLATYYCQQSYTTPFTFGPGTKVDIKR , report its measured t½.
OUTPUT: 6

INPUT: Given the entry H4H12889P (antibody, human IgG4 S228P, kappa, V domains shown, human IgG4; also called REGN7257) VH: EVQLVESGGGLVQPGGSLRLSCAASGFIFSSYEMHWVRQAPGKGLEWISYISSSGTTIYYADSVKGRFTISRDNAKNSLYLHMNSLRAEDTAVYYCTRARITGTFDVFDIWGQGTMVTVSS VL: DIQMTQSPSSLSASVGDRVTITCRASQSISSYLNWYQQKPGKAPKLLIFAASNLQSGVPSRFSGSRSGTDFTLTISSLQPEDFATYYCQQNYNIPYTFGQGTKLEIKR , report its measured t½.
OUTPUT: 11

INPUT: Given the entry H4H12863P (antibody, human IgG4 S228P, kappa, V domains shown, human IgG4) VH: QVQLVESGGGVVQPGRSLRLSCTASGFTFRSYDMYWVRQAPGKGLEWVSVITYDGNNKYYADSVKGRFTISRDNSKNTLFLQMSSLRPEDTAVYYCAKRGLIWVGESFDYWGQGTLVTVSS VL: DIQMTQSPSTLSASVGDRVTITCRASQSINSWLAWYQQKPGKAPNLLIYKASSLESGVPSRFSGSGSGTEFTLTISSLQPDDFATYYCQQYKSYSWTFGQGTKVEIKR , report its measured t½.
OUTPUT: 21

INPUT: Given the entry H4H12871P (antibody, human IgG4 S228P, kappa, V domains shown, human IgG4; also called REGN9434) VH: QVQLQESGPGLVKPSQTLSLTCTVSGGSITSGGYYWSWIRQYPGQGLEWIGYIYYSGKTYYNPSFTSRITISVDTSKKQFSLKMSSVTAADTAVYYCARAGFTSSNGWFDPWGQGTLVTVSS VL: DIQMTQSPSSLSASVGDRVTITCRASQNIRSYLNWYQQKPGKAPKLLIYSASSLQSGVPSRFSGSGSGTDFTLTISSLQPEDFPTYYCQQTYSSPWTFGPGTKVEIKR , report its measured t½.
OUTPUT: 10
